EXPERIMENTAL_PROTOCOL: NCI Yeast Anticancer Drug Screen. Data for the bub3 strain (AID 167)
CONDITION: S. cerevisiae bub3 mutant strain, at 50.0 µM
This is part of a sample that, as a whole, favours compounds with a hit. Of some 79,000 tested, about 15% had one in any assay. Active and inactive are the calls of the source. Cut-off read from the data, not from the text of the source: active = growth inhibition above about 70%; inactive = the rest.
Respond with a class label; see active, inactive

Consider the following illustrative entries.
* COC1CCC(/C(C#N)=C/c2ccco2)CC1 (centres undefined) | active
* CCCCC#CCOC(=O)c1cc([N+](=O)[O-])cc([N+](=O)[O-])c1 | active
* Clc1nc2cc3nc(Cl)c(Cl)nc3cc2nc1Cl | inactive

Query: Write down the call the test reported for this compound. Item: `COc1cc(/C=C/C(=N\NC(=O)c2ccccc2)c2sc(Nc3ccc(Cl)c(Cl)c3)nc2C)ccc1O`
Response: active
